Below is a list of entries, each paired with its recorded T/C value.
system: P388 leukemia ip, CD2F1 mice, survival T/C; assay: NCI In Vivo Anticancer Drug Screen. Data for tumor model P388 Leukemia (intraperitoneal) in CD2F1 (CDF1) mice; conditions: endpoint: median survival time; dose: 50.0 mg/kg/injection; schedule: Q01DX009 (ip); vehicle: saline; higher = longer survival
Toxic doses and inconclusive results are not listed.
measured property: T/C

• CC1CCC(C)(C(O)c2ccc(C(O)C3(C)CCC(C)C3(C)C)cc2)C1(C)C (centres undefined) = 86 % of control
• CN(C)P(=O)(N=S=NC(C)(C)C)N(C)C = 109 % of control
• CN=C(N)NN = 97 % of control
• CCN1C(=O)c2ccccc2C1=O = 101 % of control
• CCCCNC(C)(C)C(SSSC(c1ccco1)C(C)(C)NCCCC)c1ccco1 (centres undefined) = 113 % of control
• N#CC(C#N)=C1Sc2nc3ccc([N+](=O)[O-])cc3nc2S1 = 109 % of control
• O=S(=O)(OC1CCC2CCC1O2)c1ccc(Br)cc1 (centres undefined) = 86 % of control
• CCOC(=O)CS(=O)(=O)CCCCCCCCCCS(=O)(=O)CC(=O)OCC = 102 % of control
• O=C1CSC(=O)N1c1ccc(Cl)c(Cl)c1 = 88 % of control

====

Test system: P388 leukemia ip, CD2F1 mice, survival T/C
Assay: NCI In Vivo Anticancer Drug Screen. Data for tumor model P388 Leukemia (intraperitoneal) in CD2F1 (CDF1) mice
Conditions: endpoint: median survival time; dose: 50.0 mg/kg/injection; schedule: Q01DX009 (ip); vehicle: suspension in saline; higher = longer survival
Experimental: The antitumor activity of compounds was measured in mice bearing transplantable tumors. Survival or tumor size were measured and the results are expressed as the measurement made in the treated group (T) divided by the measurement made in the vehicle treated control group (C). The tumor model used in this assay is P388 Leukemia (intraperitoneal) in CD2F1 (CDF1) mice
Inconclusive results and toxic doses are left out.
Below is a list of entries, each paired with its recorded T/C value.
measured property: T/C

• COC(=O)c1ccc(/C=C(\c2ccc([N+](=O)[O-])o2)S(=O)(=O)c2ccc(NC(C)=O)cc2)o1 = 95 % of control
• O=C1CCSC(=S)N1c1ccc(F)c(F)c1 = 107 % of control
• CC(C)c1ccc(C2NC(C(=O)O)CS2)cc1 (stereo not drawn) = 93 % of control

====

system: P388 leukemia ip, CD2F1 mice, survival T/C; test: NCI In Vivo Anticancer Drug Screen. Data for tumor model P388 Leukemia (intraperitoneal) in CD2F1 (CDF1) mice; details: endpoint: median survival time; dose: 100.0 mg/kg/injection; schedule: Q01DX001 (ip); vehicle: Klucel (hydroxypropylcellulose) (HPC); higher = longer survival
Inconclusive results and toxic doses are left out.
measured property: T/C

• COc1ccccc1-n1c(=O)c(N=Nc2ccccc2)c(O)n(-c2ccccc2Cl)c1=S = 97 % of control
• CCC(=O)n1c(Cl)c(C=O)c2ccccc21 = 99 % of control
• O=[N+]([O-])C1(Cl)CCC(Cl)([N+](=O)[O-])CC1 (stereo not given) = 100 % of control
• CC(=O)NNc1cccc(Cl)n1 = 98 % of control
• CC1(C)C(=O)C(/C=C\c2ccccc2[N+](=O)[O-])Cc2ccccc21 (stereo not given) = 100 % of control

====

tested on: P388 leukemia ip, CD2F1 mice, survival T/C; test: NCI In Vivo Anticancer Drug Screen. Data for tumor model P388 Leukemia (intraperitoneal) in CD2F1 (CDF1) mice; conditions: endpoint: median survival time; dose: 50.0 mg/kg/injection; schedule: Q01DX009 (ip); vehicle: other; higher = longer survival
Inconclusive results and toxic doses are left out.
measured property: T/C

* C=COC(=O)C(C)(CC)CC(C)C (stereo not drawn) | 115 % of control
* CCOC(=O)C1CCCC(=O)C1Cc1cccc(OC)c1 (stereo not drawn) | 100 % of control
* COc1ccc(CCNC(=O)c2ccc(OC)c(OCc3ccccc3)c2)cc1OC | 95 % of control

====

Below is a list of entries, each paired with its recorded T/C value.
System: P388 leukemia ip, CD2F1 mice, survival T/C
Experiment: NCI In Vivo Anticancer Drug Screen. Data for tumor model P388 Leukemia (intraperitoneal) in CD2F1 (CDF1) mice
Conditions: endpoint: median survival time; dose: 120.0 mg/kg/injection; schedule: Q01DX005 (ip); vehicle: saline; higher = longer survival
Protocol: The antitumor activity of compounds was measured in mice bearing transplantable tumors. Survival or tumor size were measured and the results are expressed as the measurement made in the treated group (T) divided by the measurement made in the vehicle treated control group (C). The tumor model used in this assay is P388 Leukemia (intraperitoneal) in CD2F1 (CDF1) mice
Toxic doses and inconclusive results are not listed.
measured property: T/C

* CC(C)[C@H](N)C(=O)NCCNC(=O)[C@@H](N)C(C)C | 98 % of control
* O/N=C/c1ccccn1 | 101 % of control
* COC(=O)c1cc(C=C(C)C)[nH]c(=O)c1C#N | 107 % of control
* CC1(C)OC[C@@H](N)[C@@H](O)CO1 | 104 % of control
* COC(=O)C(OC)(OC)C(O)C(C)C (stereo not given) | 103 % of control
* C[Si](C)(CNCCN)O[Si](C)(C)CNCCN | 90 % of control
* COC(=O)CCc1c(C)nc(N(C)C)oc1=O | 100 % of control
* [O]=[Mo](=[O])=[O] | 110 % of control
* COc1ccc(C(F)C(N)C#N)cc1 (stereo not given) | 98 % of control
* COC(=O)c1cc(-c2ccncc2)[nH]c(=O)c1C#N | 99 % of control

====

test system: P388 leukemia ip, CD2F1 mice, survival T/C; experiment: NCI In Vivo Anticancer Drug Screen. Data for tumor model P388 Leukemia (intraperitoneal) in CD2F1 (CDF1) mice; details: endpoint: median survival time; dose: 100.0 mg/kg/injection; schedule: Q01DX001 (ip); vehicle: saline with Tween-80; higher = longer survival
Toxic doses and inconclusive results are not listed.
measured property: T/C

* CC12c3ccccc3CCN1C(c1ccccc1)=NN2c1ccccc1 (stereo not given) | 105 % of control
* CCc1nc(-c2ccccc2)nc2c1nc(C(C)C)n2Nc1ccccc1 | 104 % of control
* CCCCCCCCCC(C)CCCCC (stereo not given) | 100 % of control
* NNC1=Nc2cc3c(cc2C(=O)N2C[C@H](O)CC12)OCO3 (stereo not given in full) | 100 % of control
* CC1OC(=Nc2ccccc2)NC1=O (stereo not given) | 97 % of control

====

tested on: P388 leukemia ip, CD2F1 mice, survival T/C; experiment: NCI In Vivo Anticancer Drug Screen. Data for tumor model P388 Leukemia (intraperitoneal) in CD2F1 (CDF1) mice; conditions: endpoint: median survival time; dose: 12.5 mg/kg/injection; schedule: Q01DX009 (ip); vehicle: saline with Tween-80
Inconclusive results and toxic doses are left out. The calls were made as follows: active = survival T/C of 150% or more; inactive = T/C below 125% in these data.
Labels: active, inactive

* Cc1cc(N(CCCl)CCCl)ccc1N=Nc1ccccc1C(=O)[O-].Cc1cc(N(CCCl)CCCl)ccc1N=Nc1ccccc1C(=O)[O-].[Cu+2] | active
* COc1ccc2[nH]cc(CCN(C)C)c2c1 | inactive
* CC1C/C(=C2/NC3CCCCC3NC2=O)C(=O)O1 (configuration not stated) | inactive
* c1nc(SSc2ncnc3nc[nH]c23)c2[nH]cnc2n1 | inactive
* C1CN=C(N2CCCC2)C1 | inactive
* CN1C(=O)N(C2CCCCC2)C(=O)C(C)(CN2CCCCC2)C1=O (configuration not stated) | inactive
* CCCCNCC(O)c1cc2c(Cl)cc(Cl)cc2c2cc(C(F)(F)F)ccc12 (configuration not stated) | inactive

====

tested on: P388 leukemia ip, CD2F1 mice, survival T/C; assay: NCI In Vivo Anticancer Drug Screen. Data for tumor model P388 Leukemia (intraperitoneal) in CD2F1 (CDF1) mice; settings: endpoint: median survival time; dose: 120.0 mg/kg/injection; schedule: Q01DX005 (ip); vehicle: Klucel (hydroxypropylcellulose) (HPC); higher = longer survival
Inconclusive results and toxic doses are left out.
measured property: T/C

* CCOC(=O)c1ccc(NC(=O)Nc2ccc(Nc3ccccc3)cc2)cc1 | 92 % of control
* Cc1nn(-c2ccccc2)c2c1C(=O)CC(C)O2 (centres undefined) | 91 % of control
* COc1cc(/C=C2/C(=O)N(c3ccccc3)N=C2C)cc(OC)c1OC | 104 % of control
* Oc1ccccc1C=NCCSSCCN=Cc1ccccc1O | 101 % of control

====

system: P388 leukemia ip, CD2F1 mice, survival T/C; assay: NCI In Vivo Anticancer Drug Screen. Data for tumor model P388 Leukemia (intraperitoneal) in CD2F1 (CDF1) mice; conditions: endpoint: median survival time; dose: 50.0 mg/kg/injection; schedule: Q01DX005 (ip); vehicle: Klucel (hydroxypropylcellulose) (HPC)
Toxic doses and inconclusive results are not listed. How the source made its calls: active means survival T/C of 150% or more; inactive means T/C below 125% in these data. Peptide text beside a SMILES is read from it.
Labels: true for active, false for inactive

• O=C(Cc1cccs1)c1ccc(O)cc1 = false
• O=C(N/C=C/c1ccco1)NC1CCCCCCCCCCC1 = false
• CN1C2C=C(c3ccc(C(F)(F)F)cc3)CC1CC2 (stereo unspecified) = false
• Cc1c(C)n(C)c(=S)n(C)c1=S = false
• CN(C)c1ccc(C=C2C(=O)OC(C)(C)OC2=O)cc1 = false
• NCC(CC(=O)O)c1ccc(Cl)cc1 (stereo unspecified) = false
• c1cc2c3c(cccc3c1)NC(c1ccc3c(c1)OCO3)N2 = false
• Cn1c(O)c2c(c1O)C(=Nc1ccccc1)c1ccccc1C2=O = false
• COc1cccc2c1C(=O)C=C(c1ccccc1)S2(=O)=O = false
• COC1=CC(=O)C(CC=C(C)C)=CC1=O = false
• COc1cc(C(=O)NC(=S)Nc2csc(-c3ccc(F)cc3)n2)cc(OC)c1OC = false
• C#CCCCC#C = false
• CN1C(=O)c2ccc3c4ccc5c(=O)n6c7ccccc7nc6c6ccc(c7ccc(c2c37)C1=O)c4c56 = false
• CC(C)(C)OC(=O)C1CCON1C1OC(C(O)CO)C2OC(C)(C)OC21 (stereo unspecified) = false
• BrCCc1cc(Br)c(CCBr)cc1Br = false
• COc1ccc(S(=O)(=O)c2cc(C)c3ccc4ccccc4c3n2)cc1 = false
• Nc1nc(C2CCCC2)c(I)c(=O)[nH]1 = false
• CCCCOc1ccc(C(C)c2cc3c(cc2OCC)OCO3)cc1 (stereo unspecified) = false
• CC1OC(O)C(O)C(O)C1O (stereo unspecified) = false
• CSC1=Nc2ccccc2SC(c2ccccc2)C1c1ccccc1 (stereo unspecified) = false
• O=C(CSC1CCc2ccccc21)NNC(=O)Nc1ccc(Cl)cc1 (stereo unspecified) = false
• c1ccc2nc(N3CCCC3)c(N3CCCCC3)nc2c1 = false
• O=c1c2sc3ccccc3c2ncn1/N=C/c1cccc(Cl)c1 = false
• CNC(=S)N/N=C/Cn1cc([N+](=O)[O-])c(=O)[nH]c1=O = false
• C[Si]1(C)O[Si](C)(C)O[Si](C)(C)O[Si](C)(C)O1 = false
• CCN(CC)CCN1C(=O)c2cccc3cc([N+](=O)[O-])cc(c23)C1=O = true
• CCC(C)C(NC(=O)C(Cc1ccccc1)NC(=O)C(N)CSC)C(N)=O (stereo not drawn) (H-Cys(Me)-Phe-Ile-NH2; configuration not given here) = false
• Cc1cc2nc(-c3cc4cc(Cl)cc(Cl)c4oc3=O)[nH]c2cc1C = false
• Cn1cnc2c(F)ncnc21 = false
• Cn1c(Br)c(Br)c(=O)n(C)c1=O = false
• CCc1nc(N)nc(N)c1-c1ccc2nn(-c3ccccc3)[n+]([O-])c2c1 = false
